System: L1210.Hyor
assay notes: Cytostatic assay, Mycoplasma hyorhinis-infected L1210 cells
run conditions: Mus musculus, L1210, read-out: CC50 L1210/Hyor
// NB: equality with 0.05 µM counts as Not satisfied; only CC50 strictly below is Satisfied

Below 0.05 µM on CC50? Entry O=C(OCc1ccccc1)C1CCCN1P(=O)(OC[C@H]1O[C@@H](n2cc(F)c(=O)[nH]c2=O)CC1O)Oc1ccccc1 (stereo partly shown) [CPF 583] Not satisfied

Below 0.05 µM on CC50? Entry O=c1[nH]c(=O)n([C@H]2C[C@H](O)[C@@H](CO)O2)cc1F [5-FdUrd, 5-fluoro-2′-deoxyuridine, reference compound] Not satisfied

Below 0.05 µM on CC50? Entry O=C(OCc1ccccc1)C1CCCN1P(=O)(OC[C@H]1O[C@@H](n2cc(F)c(=O)[nH]c2=O)CC1O)Oc1cccc2ccccc12 (stereo partly shown) [CPF 577] Not satisfied

Below 0.05 µM on CC50? Entry CCOC(=O)C(C)(C)NP(=O)(OC[C@H]1O[C@@H](n2cc(F)c(=O)[nH]c2=O)CC1O)Oc1cccc2ccccc12 (stereo partly shown) [CPF 396] Not satisfied

Below 0.05 µM on CC50? Entry C[C@H](NP(=O)(OC[C@H]1O[C@@H](n2cc(F)c(=O)[nH]c2=O)CC1O)Oc1cccc2ccccc12)C(=O)OCC(C)(C)C (stereo partly shown) [CPF 588] Not satisfied

Below 0.05 µM on CC50? Entry C[C@H](NP(=O)(OC[C@H]1O[C@@H](n2cc(F)c(=O)[nH]c2=O)CC1O)Oc1cccc2ccccc12)C(=O)OC1CCCC1 (stereo partly shown) [CPF 582] Satisfied

Below 0.05 µM on CC50? Entry CSCC[C@H](NP(=O)(OC[C@H]1O[C@@H](n2cc(F)c(=O)[nH]c2=O)CC1O)Oc1ccccc1)C(=O)OCc1ccccc1 (stereo partly shown) [CPF 586] Not satisfied

Below 0.05 µM on CC50? Entry C[C@H](NP(=O)(OC[C@H]1O[C@@H](n2cc(F)c(=O)[nH]c2=O)CC1O)Oc1cccc2ccccc12)C(=O)OCc1ccccc1 (stereo partly shown) [CPF 373] Satisfied

Below 0.05 µM on CC50? Entry C[C@H](NP(=O)(OC[C@H]1O[C@@H](n2cc(F)c(=O)[nH]c2=O)CC1O)Oc1cccc2ccccc12)C(=O)OC1CCC1 (stereo partly shown) [CPF 578] Satisfied

Below 0.05 µM on CC50? Entry CCOC(=O)C(C)(C)NP(=O)(OC[C@H]1O[C@@H](n2cc(F)c(=O)[nH]c2=O)CC1O)Oc1ccccc1 (stereo partly shown) [CPF 394] Not satisfied

Below 0.05 µM on CC50? Entry CCCCOC(=O)[C@H](C)NP(=O)(OC[C@H]1O[C@@H](n2cc(F)c(=O)[nH]c2=O)CC1O)Oc1cccc2ccccc12 (stereo partly shown) [CPF 589] Not satisfied

Below 0.05 µM on CC50? Entry CC(C)(NP(=O)(OC[C@H]1O[C@@H](n2cc(F)c(=O)[nH]c2=O)CC1O)Oc1ccccc1)C(=O)OCc1ccccc1 (stereo partly shown) [CPF 393] Satisfied

###

Test system: L1210/0
assay notes: Cytostatic assay, L1210/0 cells
Assay type: cell-based, murine
run conditions: Mus musculus, L1210/0, Table 6; read-out: IC50 L1210/0
endpoint name: pIC50
A value of pIC50 is the negative decimal logarithm of a concentration given in moles per litre.

Assign pIC50 to the following record: C[C@H](NP(=O)(OC[C@H]1O[C@@H](n2cc(F)c(=O)[nH]c2=O)CC1O)Oc1cccc2ccccc12)C(=O)OCC(C)(C)C (some centres unmarked) 6.57

Assign pIC50 to the following record: CCCCCOC(=O)[C@H](C)NP(=O)(OC[C@H]1O[C@@H](n2cc(F)c(=O)[nH]c2=O)CC1O)Oc1cccc2ccccc12 (some centres unmarked) 8.55

Assign pIC50 to the following record: C[C@H](NP(=O)(OC[C@H]1O[C@@H](n2cc(F)c(=O)[nH]c2=O)CC1O)Oc1cccc2ccccc12)C(=O)OC1Cc2ccccc2C1 (some centres unmarked) 7.68

Assign pIC50 to the following record: CCOC(=O)[C@H](C)NP(=O)(OC[C@H]1O[C@@H](n2cc(F)c(=O)[nH]c2=O)CC1O)Oc1cccc2ccccc12 (some centres unmarked) 7.51

Assign pIC50 to the following record: C[C@H](NP(=O)(OC[C@H]1O[C@@H](n2cc(F)c(=O)[nH]c2=O)CC1O)Oc1cccc2ccccc12)C(=O)OCc1ccccc1 (some centres unmarked) 7.96

Assign pIC50 to the following record: CC(C)(NP(=O)(OC[C@H]1O[C@@H](n2cc(F)c(=O)[nH]c2=O)CC1O)Oc1ccccc1)C(=O)OCc1ccccc1 (some centres unmarked) 7.77

Assign pIC50 to the following record: C[C@H](NP(=O)(OC[C@H]1O[C@@H](n2cc(F)c(=O)[nH]c2=O)CC1O)Oc1cccc2ccccc12)C(=O)OC1CCCCC1 (some centres unmarked) 7.37

Assign pIC50 to the following record: CC(C)OC(=O)[C@H](C)NP(=O)(OC[C@H]1O[C@@H](n2cc(F)c(=O)[nH]c2=O)CC1O)Oc1ccccc1 (some centres unmarked) 7.12

###

System: L1210/0
assay notes: Cytostatic assay, L1210/0 cells
Assay type: cell-based, murine
run conditions: Table 2, mycoplasma negative cells; read-out: CC50 L1210
Could you please report measured CC50 for the items listed next?
Kindly provide the numeric value in nM only, without the unit symbol.

Give CC50 for this entry on L1210/0: CC(C)C(NP(=O)(OCC1OC(n2cc(F)c(=O)[nH]c2=O)CC1O)Oc1cccc2ccccc12)C(=O)OC1CCCCC1 (stereo not drawn) [CPF 576] 1400

Give CC50 for this entry on L1210/0: C[C@H](NP(=O)(OC[C@H]1O[C@@H](n2cc(F)c(=O)[nH]c2=O)CC1O)Oc1ccccc1)C(=O)OCc1ccccc1 (stereo partly drawn) [CPF 381] 26

Give CC50 for this entry on L1210/0: CC(C)(NP(=O)(OCC1OC(n2cc(F)c(=O)[nH]c2=O)CC1O)Oc1cccc2ccccc12)C(=O)OCc1ccccc1 (stereo not drawn) [CPF 395] 19

###

Tested on: L1210/0
assay notes: Cytostatic assay, L1210/0 cells
Type: cell-based, murine
run conditions: Mus musculus, L1210/0, Table 6; read-out: IC50 L1210/0
endpoint name: pIC50
A value of pIC50 is the negative decimal logarithm of a concentration given in moles per litre.

Assign pIC50 to the following record: CCOC(=O)C(C)(C)NP(=O)(OC[C@H]1O[C@@H](n2cc(F)c(=O)[nH]c2=O)CC1O)Oc1cccc2ccccc12 (stereo partly shown) 7.19

Assign pIC50 to the following record: CCOC(=O)C(C)(C)NP(=O)(OC[C@H]1O[C@@H](n2cc(F)c(=O)[nH]c2=O)CC1O)Oc1ccccc1 (stereo partly shown) 7.41

Assign pIC50 to the following record: C[C@H](NP(=O)(OC[C@H]1O[C@@H](n2cc(F)c(=O)[nH]c2=O)CC1O)Oc1cccc2ccccc12)C(=O)OCCC(C)(C)C (stereo partly shown) 7.80

Assign pIC50 to the following record: O=C(OCc1ccccc1)[C@H](Cc1ccccc1)NP(=O)(OC[C@H]1O[C@@H](n2cc(F)c(=O)[nH]c2=O)CC1O)Oc1cccc2ccccc12 (stereo partly shown) 7.92

Assign pIC50 to the following record: CCCCOC(=O)[C@H](C)NP(=O)(OC[C@H]1O[C@@H](n2cc(F)c(=O)[nH]c2=O)CC1O)Oc1cccc2ccccc12 (stereo partly shown) 7.66

Assign pIC50 to the following record: O=c1[nH]cc(F)c(=O)[nH]1 [5-FU, 5-Fluorouracil, reference compound] 6.48

Assign pIC50 to the following record: C[C@H](NP(=O)(OC[C@H]1O[C@@H](n2cc(F)c(=O)[nH]c2=O)CC1O)Oc1cccc2ccccc12)C(=O)OC1CCOCC1 (stereo partly shown) 7.42

Assign pIC50 to the following record: COC(=O)[C@H](C)NP(=O)(OC[C@H]1O[C@@H](n2cc(F)c(=O)[nH]c2=O)CC1O)Oc1ccccc1 (stereo partly shown) [CPF 382, reference compound] 7.66

Assign pIC50 to the following record: CCOC(=O)[C@H](C)NP(=O)(OC[C@H]1O[C@@H](n2cc(F)c(=O)[nH]c2=O)CC1O)Oc1ccccc1 (stereo partly shown) 6.89

Assign pIC50 to the following record: C[C@H](NP(=O)(OC[C@H]1O[C@@H](n2cc(F)c(=O)[nH]c2=O)CC1O)Oc1cccc2ccccc12)C(=O)OCC1CC1 (stereo partly shown) 7.77

Assign pIC50 to the following record: CSCC[C@H](NP(=O)(OC[C@H]1O[C@@H](n2cc(F)c(=O)[nH]c2=O)CC1O)Oc1ccccc1)C(=O)OCc1ccccc1 (stereo partly shown) 7.14

Assign pIC50 to the following record: C[C@H](NP(=O)(OC[C@H]1O[C@@H](n2cc(F)c(=O)[nH]c2=O)CC1O)Oc1cccc2ccccc12)C(=O)OC1CCC1 (stereo partly shown) 7.85

Assign pIC50 to the following record: C[C@H](NP(=O)(OC[C@H]1O[C@@H](n2cc(F)c(=O)[nH]c2=O)CC1O)Oc1cccc2ccccc12)C(=O)OC1CCCC1 (stereo partly shown) 7.51
